Just for reference, patent US4220577A is where these values come from.

Here we list molecules with their recorded MIC when tested on Escherichia coli.

- molecule: "Nc1ncccc1OCC#CI [drawing 6]"
  dataValue: "15 to 76 µg/mL"

Input Cc1ccc(OCC#CI)cn1 [drawing 3] . Output MIC: > 1920 µg/mL

Input IC#CCOc1cccnc1 [drawing 2] . Output MIC: 76 to 384 µg/mL

Input IC#CCOc1ccncc1 [drawing 9] . Output MIC: 384 to 1920 µg/mL

Input IC#CCSc1ccncc1 [drawing 10] . Output MIC: > 1920 µg/mL

Input Clc1ncccc1OCC#CI [drawing 4] . Output MIC: 15 to 76 µg/mL

Input IC#CCSc1cccnc1 [drawing 7] . Output MIC: > 1920 µg/mL

Input IC#CCOCc1cccnc1 [drawing 8] . Output MIC: 76 to 384 µg/mL

Input Cc1ccc(OCC#CI)c(Cl)n1 [drawing 5] . Output MIC: > 1920 µg/mL
